Tested on: SH-SY5Y
PROTOCOL_SUMMARY: Induction of apoptosis in human SH-SY5Y cells assessed as late apoptotic cells incubated for 48 hrs by annexin V FITC and propidium iodide staining based flow cytometry (reference value: 1.37 %)
Assay type: functional
ENDPOINT: Activity (%)

• CN(CCOC(=O)/C=C/C(=O)c1ccc(F)cc1)C(C(=O)NC(C)(C)C)c1ccc(F)cc1 (stereo unspecified) = 6.73
• COc1ccc(C(C(=O)NC(C)(C)C)N(C(=O)/C=C/C(=O)c2ccc(C)cc2)C(C)C)cc1 (stereo unspecified) = 2.14
• CC(C)(C)NC(=O)C(c1ccc(F)cc1)N(C(=O)/C=C/C(=O)c1ccc(F)cc1)C1CC1 (stereo unspecified) = 1.54
• COc1cc(C(C(=O)NC(C)(C)C)N(CCC(C)C)C(=O)/C=C/C(=O)c2ccc(F)cc2)cc(OC)c1OC (stereo unspecified) = 0.39
• Cc1ccc(C(=O)/C=C/C(=O)N(C2CC2)C(C(=O)NCc2ccccc2)c2ncc(C)cn2)cc1 (stereo unspecified) = 2.91
• COc1ccccc1C(C(=O)NC1CCCCC1)N(C(=O)/C=C/C(=O)c1ccc(C)cc1)C1CCCCC1 (stereo unspecified) = 0.92

* * *

TESTED_TARGET: Thioredoxin reductase 1, cytoplasmic (Homo sapiens, UniProt Q16881)
PROTOCOL_SUMMARY: Inhibition of TrxR in human SH-SY5Y cells using DTNB as substrate preincubated for 15 mins followed by substrate addition and measured for 20 mins by Ellman's method
Type: cell-based
pIC50: −log10 of the molar value.
// reported pIC50 for each item listed
ENDPOINT: pIC50

• COc1cc(C(C(=O)NC(C)(C)C)N(CCC(C)C)C(=O)/C=C/C(=O)c2ccc(F)cc2)cc(OC)c1OC (stereo not drawn) = 5.07
• Cc1ccc(C(=O)/C=C/C(=O)N(C2CC2)C(C(=O)NCc2ccccc2)c2ncc(C)cn2)cc1 (stereo not drawn) = 4.50
• CC(C)(C)NC(=O)C(c1ccc(F)cc1)N(C(=O)/C=C/C(=O)c1ccc(F)cc1)C1CC1 (stereo not drawn) = 4.76
• CCCN(C(=O)/C=C/C(=O)c1ccc(C)cc1)C(C(=O)NC1CCCCC1)c1ccc(C)cc1 (stereo not drawn) = 4.09
• COc1ccccc1C(C(=O)NC1CCCCC1)N(C(=O)/C=C/C(=O)c1ccc(C)cc1)C1CCCCC1 (stereo not drawn) = 4.29
• CCCCN(C(=O)/C=C/C(=O)c1ccc(F)cc1)C(C(=O)NCc1ccccc1)C(C)(C)C (stereo not drawn) = 4.52

* * *

TESTED_TARGET: Thioredoxin reductase 1, cytoplasmic (Homo sapiens, UniProt Q16881)
Sequence (Q16881 whole entry): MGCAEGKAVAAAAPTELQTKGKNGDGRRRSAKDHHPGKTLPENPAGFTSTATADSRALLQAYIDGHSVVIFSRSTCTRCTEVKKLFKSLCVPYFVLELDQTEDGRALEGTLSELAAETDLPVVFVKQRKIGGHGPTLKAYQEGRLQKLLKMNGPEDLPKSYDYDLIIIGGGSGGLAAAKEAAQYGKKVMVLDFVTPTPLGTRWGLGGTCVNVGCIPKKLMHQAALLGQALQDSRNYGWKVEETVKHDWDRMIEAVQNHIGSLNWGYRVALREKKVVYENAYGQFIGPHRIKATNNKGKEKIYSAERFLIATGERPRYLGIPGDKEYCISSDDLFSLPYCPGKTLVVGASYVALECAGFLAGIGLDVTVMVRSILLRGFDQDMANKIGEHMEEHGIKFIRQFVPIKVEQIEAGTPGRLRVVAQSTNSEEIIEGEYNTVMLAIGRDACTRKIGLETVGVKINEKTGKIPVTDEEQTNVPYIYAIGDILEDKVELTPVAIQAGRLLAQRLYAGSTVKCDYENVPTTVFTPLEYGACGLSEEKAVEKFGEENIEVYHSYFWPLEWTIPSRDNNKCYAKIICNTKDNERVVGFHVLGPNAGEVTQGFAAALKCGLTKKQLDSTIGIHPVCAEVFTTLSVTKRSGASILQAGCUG
PROTOCOL_SUMMARY: Inhibition of TrxR in human SH-SY5Y cells using DTNB as substrate preincubated for 15 mins followed by substrate addition and measured for 20 mins by Ellman's method
Assay type: cell-based
// reported IC50 for each item listed
ENDPOINT: IC50 (µM)

• COc1ccc(C(C(=O)NC(C)(C)C)N(C(=O)/C=C/C(=O)c2ccc(C)cc2)C(C)C)cc1 (stereo not given) = 16
• Cc1ccc(C(=O)/C=C/C(=O)N(C2CC2)C(C(=O)NC2CCCCC2)c2ccc(F)cc2)cc1 (stereo not given) = 29.3
• CN(CCOC(=O)/C=C/C(=O)c1ccc(F)cc1)C(C(=O)NC(C)(C)C)c1ccc(F)cc1 (stereo not given) = 7.26
• COc1ccc(C(C(=O)NC(C)(C)C)N(C(=O)/C=C/C(=O)c2ccc(C)cc2)C2CC2)cc1OC (stereo not given) = 76.6

* * *

Tested on: HaCaT
PROTOCOL_SUMMARY: Induction of apoptosis in human HaCaT cells assessed as necrotic cells incubated for 48 hrs by annexin V FITC and propidium iodide staining based flow cytometry (reference value: 2.74 %)
Format: cell-based
Entry flag: met if Activity reaches 10%; not met if it does not.

- Cc1ccc(C(=O)/C=C/C(=O)N(C2CC2)C(C(=O)NCc2ccccc2)c2ncc(C)cn2)cc1 (stereo unspecified): not met
- CC(C)(C)NC(=O)C(c1ccc(F)cc1)N(C(=O)/C=C/C(=O)c1ccc(F)cc1)C1CC1 (stereo unspecified): not met
- COc1ccc(C(C(=O)NC(C)(C)C)N(C(=O)/C=C/C(=O)c2ccc(C)cc2)C(C)C)cc1 (stereo unspecified): met
- COc1cc(C(C(=O)NC(C)(C)C)N(CCC(C)C)C(=O)/C=C/C(=O)c2ccc(F)cc2)cc(OC)c1OC (stereo unspecified): met
- CN(CCOC(=O)/C=C/C(=O)c1ccc(F)cc1)C(C(=O)NC(C)(C)C)c1ccc(F)cc1 (stereo unspecified): not met
- COc1ccccc1C(C(=O)NC1CCCCC1)N(C(=O)/C=C/C(=O)c1ccc(C)cc1)C1CCCCC1 (stereo unspecified): not met

* * *

PROTOCOL_SUMMARY: Induction of apoptosis in human HaCaT cells assessed as viable cells incubated for 48 hrs by annexin V FITC and propidium iodide staining based flow cytometry (reference value: 95.78 %)
Format: cell-based
MEASUREMENT_SETUP: read-out: Activity
# label = True if viability at 48 h < 90% else False

• CN(CCOC(=O)/C=C/C(=O)c1ccc(F)cc1)C(C(=O)NC(C)(C)C)c1ccc(F)cc1 (stereo unspecified) = False
• COc1cc(C(C(=O)NC(C)(C)C)N(CCC(C)C)C(=O)/C=C/C(=O)c2ccc(F)cc2)cc(OC)c1OC (stereo unspecified) = True
• COc1ccc(C(C(=O)NC(C)(C)C)N(C(=O)/C=C/C(=O)c2ccc(C)cc2)C(C)C)cc1 (stereo unspecified) = True
• CC(C)(C)NC(=O)C(c1ccc(F)cc1)N(C(=O)/C=C/C(=O)c1ccc(F)cc1)C1CC1 (stereo unspecified) = False

* * *

// reported pIC50 for each item listed
TESTED_TARGET: Thioredoxin reductase 1, cytoplasmic (Homo sapiens)
PROTOCOL_SUMMARY: Inhibition of TrxR1 (unknown origin) using DTNB as substrate preincubated for 30 mins in presence of insulin followed by substrate addition by colorimetry
pIC50: −log10 of the molar value.
ENDPOINT: pIC50

- CN(CCOC(=O)/C=C/C(=O)c1ccc(F)cc1)C(C(=O)NC(C)(C)C)c1ccc(F)cc1 (stereo unspecified): 6.02
- CC(C)(C)NC(=O)C(c1ccc(F)cc1)N(C(=O)/C=C/C(=O)c1ccc(F)cc1)C1CC1 (stereo unspecified): 6.09
- COc1ccccc1C(C(=O)NC1CCCCC1)N(C(=O)/C=C/C(=O)c1ccc(C)cc1)C1CCCCC1 (stereo unspecified): 5.28
- COc1cc(C(C(=O)NC(C)(C)C)N(CCC(C)C)C(=O)/C=C/C(=O)c2ccc(F)cc2)cc(OC)c1OC (stereo unspecified): 5.60
- COc1ccc(C(C(=O)NC(C)(C)C)N(C(=O)/C=C/C(=O)c2ccc(C)cc2)C(C)C)cc1 (stereo unspecified): 6.12
- Cc1ccc(C(=O)/C=C/C(=O)N(C2CC2)C(C(=O)NCc2ccccc2)c2ncc(C)cn2)cc1 (stereo unspecified): 5.18

* * *

// reported IC50 for each item listed
Tested on: SH-SY5Y
PROTOCOL_SUMMARY: Cytotoxicity against human SH-SY5Y cells assessed as reduction in cell viability incubated for 72 hrs by MTT assay
Type: functional, cell-based
ENDPOINT: IC50 (nM)

* CN(CCOC(=O)/C=C/C(=O)c1ccc(F)cc1)C(C(=O)NC(C)(C)C)c1ccc(F)cc1 (configuration not stated) | 11000
* CC(C)(C)NC(=O)C(c1ccc(F)cc1)N(C(=O)/C=C/C(=O)c1ccc(F)cc1)C1CC1 (configuration not stated) | 560
* COc1ccc(C(C(=O)NC(C)(C)C)N(C(=O)/C=C/C(=O)c2ccc(C)cc2)C(C)C)cc1 (configuration not stated) | 900
* COc1cc(/C=C/C(=O)N2CCC=CC2=O)cc(OC)c1OC [PIPLARTINE] | 5940
* COc1cc(C(C(=O)NC(C)(C)C)N(CCC(C)C)C(=O)/C=C/C(=O)c2ccc(F)cc2)cc(OC)c1OC (configuration not stated) | 2960
* Cc1ccc(C(=O)/C=C/C(=O)N(C2CC2)C(C(=O)NCc2ccccc2)c2ncc(C)cn2)cc1 (configuration not stated) | 4940
* COc1ccccc1C(C(=O)NC1CCCCC1)N(C(=O)/C=C/C(=O)c1ccc(C)cc1)C1CCCCC1 (configuration not stated) | 1770
